Assignment: determine reported EC50 for the given molecules.
system: IL-6 (THP-1 cells); assay: IL-6 inhibition in LPS-stimulated THP-1 monocytes (HTRF); type: cell-based; conditions: Homo sapiens, 500 ng/mL LPS, IL-6 HTRF, Table 6
Numbers only, in µM.

Before answering, review these 5 worked examples.
[[record]]
entry_smiles = "Fc1cccc(-c2cccc3[nH]c(-c4n[nH]c5ccc(C6CCNCC6)nc45)nc23)c1"
unit_name = "µM"
data_value = 4.92

[[record]]
entry_smiles = "c1cc(N2CCCCC2)c2nc(-c3n[nH]c4ccc(-c5cncc(OCCN6CCCC6)c5)nc34)[nH]c2c1"
unit_name = "µM"
data_value = 0.695

[[record]]
entry_smiles = "CN1CCN(c2cccc3[nH]c(-c4n[nH]c5ccc(-c6cnccn6)nc45)nc23)CC1"
unit_name = "µM"
data_value = 0.0695

[[record]]
entry_smiles = "Fc1cccc(-c2cccc3[nH]c(-c4n[nH]c5ccc(-c6cncc(OCCN7CCCC7)c6)nc45)nc23)c1"
unit_name = "µM"
data_value = 0.727

[[record]]
entry_smiles = "Fc1cccc(-c2cccc3[nH]c(-c4n[nH]c5ccc(-c6ccncc6)nc45)nc23)c1"
unit_name = "µM"
data_value = 3.62


Okay, here is my list. What is EC50 for each of these?
1. CCC(=O)Nc1cncc(-c2ccc3[nH]nc(-c4nc5c(N6CCCCC6)cccc5[nH]4)c3n2)c1
2. c1ccc(CNCc2cncc(-c3ccc4[nH]nc(-c5nc6c(-c7cccnc7)cccc6[nH]5)c4n3)c2)cc1
3. NC1CN(c2cncc(-c3ccc4[nH]nc(-c5nc6c(-c7cccc(F)c7)cccc6[nH]5)c4n3)n2)C1

1: 0.161; 2: 2.12; 3: 7.84

// recorded EC50 for CC(C)CC(=O)Nc1cncc(-c2ccc3[nH]nc(-c4nc5c(-c6cccc(F)c6)cccc5[nH]4)c3n2)c1 : 6.69

====

test system: Wnt activity (Sp5-Luc reporter, Wnt-responsive promoter) in SW480 colon carcinoma cells; experiment: Wnt activity screening assay: Sp5-Luc reporter gene assay in SW480 cells; type: cell-based; settings: Homo sapiens, overnight incubation, 10-point curve starting from 10 μM
ASSAY_METRIC: EC50

[[record]]
entry_smiles = "Cc1ccc(-c2cccc3[nH]c(-c4n[nH]c5ccc(-c6cncc(NC(=O)C7CCCC7)c6)nc45)nc23)s1"
data_value = "> 10 µM"

[[record]]
entry_smiles = "Fc1ccc(-c2cccc3[nH]c(-c4n[nH]c5ccc(-c6cncnc6)nc45)nc23)cc1"
data_value = "> 10 µM"


Read the next record carefully.
Noted for Cc1cn(-c2cccc3[nH]c(-c4n[nH]c5ccc(-c6cncc(N7CC(N)C7)n6)nc45)nc23)cn1 : its EC50 reads > 10 µM
